- Test system: Mus musculus
- Method description: Toxicity in ip dosed Swiss-Webster albino mouse
- Assay type: organism-based
- Test parameters: in vivo
Measured parameter: LD50
Hey, just send me the number, nothing else.

Ask | Observed LD50 on Mus musculus for CN1CC[C@H]2CCC[C@@H](NS(=O)(=O)c3ccccc3)[C@H]2C1 (mixture of isomers) , please.
Reply | 1460

Ask | Next record, please: COc1cc(C(=O)O[C@@H]2CCC[C@@H]3CCN(C)C[C@H]32)cc(OC)c1OC (mixture of isomers)
Reply | 338

Ask | Next up: CN1CC[C@H]2CCC[C@@H](OC(=O)c3ccc(Cl)cc3)[C@@H]2C1 (mixture of isomers)
Reply | 757

Ask | What about COc1ccc(C(=O)N[C@@H]2CCC[C@@H]3CCN(C)C[C@H]32)cc1OC (mixture of isomers) ?
Reply | 1600

Ask | Follow-up entry: CN1CC[C@H]2CCC[C@@H](NC(=O)c3ccc(Cl)cc3)[C@H]2C1 (mixture of isomers)
Reply | 909

Ask | Lookup COc1ccccc1C(=O)N[C@@H]1CCC[C@@H]2CCN(C)C[C@H]21 (mixture of isomers)
Reply | 761

Ask | Likewise for COc1ccc(C(=O)N[C@@H]2CCC[C@@H]3CCN(C)C[C@H]32)cc1 (mixture of isomers) ?
Reply | 1490

Ask | Queued: CN1CC[C@H]2CCC[C@@H](NC(=O)c3ccccc3)[C@H]2C1 (mixture of isomers)
Reply | 1430

Ask | Query CN1CC[C@H]2CCC[C@@H](NS(=O)(=O)c3ccccc3)[C@@H]2C1 (mixture of isomers) next
Reply | 1113

Ask | What do you have for COc1ccc(C(=O)N[C@@H]2CCC[C@@H]3CCN(C)C[C@@H]32)cc1 (mixture of isomers) ?
Reply | 1560

Ask | Another compound to look at: CN1CC[C@H]2CCC[C@@H](NC(=O)c3ccc(Cl)cc3)[C@@H]2C1 (mixture of isomers)
Reply | 952

Ask | Moving on to COc1cc(C(=O)N[C@@H]2CCC[C@@H]3CCN(C)C[C@H]32)cc(OC)c1OC (mixture of isomers)
Reply | 835

Ask | Entry CN1CC[C@H]2CCC[C@@H](OC(=O)c3ccccc3)[C@H]2C1 (relative stereo) please
Reply | 900

Ask | Input CN1CC[C@H]2CCC[C@@H](NC(=O)c3ccc(Cl)c(Cl)c3)[C@H]2C1 (mixture of isomers)
Reply | 712

Ask | Here is the next compound: COc1ccccc1C(=O)N[C@@H]1CCC[C@@H]2CCN(C)C[C@@H]21 (mixture of isomers)
Reply | 847

----------
- Species: Homo sapiens
- Method description: Drug absorption in buccal cavity in human at pH 9.3 after 5 mins by UV spectrometry
- Type: ADME, organism-based
- Test parameters: in vivo, other, pH 9.3, 5 min
Please respond with reported Drug absorption for every item in the list.
Entry rule: numbers only, all in %.

Ask | Need Drug absorption, item CN1CC[C@H]2CCC[C@@H](NS(=O)(=O)c3ccccc3)[C@@H]2C1 (mixture of isomers)
Reply | 37.1

Ask | Another compound to look at: CN1CC[C@H]2CCC[C@@H](NC(=O)c3ccc(Cl)cc3)[C@@H]2C1 (mixture of isomers)
Reply | 54.4

Ask | What about this compound? COc1ccc(C(=O)N[C@@H]2CCC[C@@H]3CCN(C)C[C@@H]32)cc1OC (mixture of isomers)
Reply | 17.6

Ask | Subsequent entry: COc1ccccc1C(=O)N[C@@H]1CCC[C@@H]2CCN(C)C[C@@H]21 (mixture of isomers)
Reply | 35.1

Ask | Would you kindly repeat that for CN1CC[C@H]2CCC[C@@H](NC(=O)c3ccc(Cl)c(Cl)c3)[C@@H]2C1 (mixture of isomers) ?
Reply | 59.3

Ask | Follow-up item: COc1ccc(C(=O)N[C@@H]2CCC[C@@H]3CCN(C)C[C@H]32)cc1OC (mixture of isomers)
Reply | 27.1

Ask | Thanks! And COc1ccc(C(=O)N[C@@H]2CCC[C@@H]3CCN(C)C[C@@H]32)cc1 (mixture of isomers) ?
Reply | 30.6

----------
- Species on record: Homo sapiens
- Method description: Drug absorption in buccal cavity in human at pH 7.50 after 5 mins by UV spectrometry
- Type: ADME, organism-based
- Test parameters: in vivo, other, pH 7.5, 5 min
Could you please report measured Drug absorption for the items listed next?
Number only, in %; omit the unit.

Ask | Need Drug absorption of COc1ccccc1C(=O)N[C@@H]1CCC[C@@H]2CCN(C)C[C@@H]21 (mixture of isomers) , thanks.
Reply | 5.3

Ask | What do we get for CN1CC[C@H]2CCC[C@@H](NC(=O)c3ccc(Cl)cc3)[C@H]2C1 (mixture of isomers) ?
Reply | 9.3

Ask | Check COc1ccccc1C(=O)N[C@@H]1CCC[C@@H]2CCN(C)C[C@H]21 (mixture of isomers) too.
Reply | 12.8

Ask | What about CN1CC[C@H]2CCC[C@@H](NS(=O)(=O)c3ccccc3)[C@H]2C1 (mixture of isomers) ?
Reply | 17.7

Ask | And what about the compound CN1CC[C@H]2CCC[C@@H](NC(=O)c3ccc(Cl)c(Cl)c3)[C@@H]2C1 (mixture of isomers) ?
Reply | 25.7

Ask | Could you do the same for CN1CC[C@H]2CCC[C@@H](OC(=O)c3ccc(Cl)cc3)[C@H]2C1 (mixture of isomers) , please?
Reply | 43.7

----------
- Organism: Homo sapiens
- Method description: Drug absorption in buccal cavity in human at pH 9.3 after 5 mins by UV spectrometry
- Format: ADME, organism-based
- Test parameters: in vivo, other, pH 9.3, 5 min
Class Condition met: Drug absorption at least 40%. Class Condition not met: Drug absorption below 40%.

Ask | Is Drug absorption for CN1CC[C@H]2CCC[C@@H](OC(=O)c3ccc(Cl)cc3)[C@@H]2C1 (mixture of isomers) at or above 40%?
Reply | Condition met

Ask | Repeat with CN1CC[C@H]2CCC[C@@H](NS(=O)(=O)c3ccccc3)[C@H]2C1 (mixture of isomers)
Reply | Condition not met

Ask | Next up: COc1cc(C(=O)O[C@@H]2CCC[C@@H]3CCN(C)C[C@H]32)cc(OC)c1OC (mixture of isomers)
Reply | Condition met

Ask | How about CN1CC[C@H]2CCC[C@@H](NC(=O)c3ccc(Cl)c(Cl)c3)[C@H]2C1 (mixture of isomers) ?
Reply | Condition met

Ask | # repeat for COc1ccc(C(=O)N[C@@H]2CCC[C@@H]3CCN(C)C[C@H]32)cc1 (mixture of isomers)
Reply | Condition not met

Ask | Input COc1cc(C(=O)N[C@@H]2CCC[C@@H]3CCN(C)C[C@@H]32)cc(OC)c1OC (mixture of isomers)
Reply | Condition not met

----------
- Species: Homo sapiens
- Method description: Drug absorption in buccal cavity in human at pH 5.50 after 5 mins by UV spectrometry
- Type: ADME, organism-based
- Test parameters: in vivo, other, pH 5.5, 5 min
hey, just use Criterion met if measured Drug absorption is less than 8%, otherwise Criterion not met

Ask | Answer whether the compound COc1cc(C(=O)O[C@@H]2CCC[C@@H]3CCN(C)C[C@H]32)cc(OC)c1OC (mixture of isomers) has Drug absorption strictly less than 8%
Reply | Criterion not met

Ask | Now consider COc1ccccc1C(=O)N[C@@H]1CCC[C@@H]2CCN(C)C[C@H]21 (mixture of isomers) and answer again.
Reply | Criterion met

Ask | And then CN1CC[C@H]2CCC[C@@H](NC(=O)c3ccc(Cl)c(Cl)c3)[C@@H]2C1 (mixture of isomers) , what is it?
Reply | Criterion not met

Ask | Try COc1ccc(C(=O)N[C@@H]2CCC[C@@H]3CCN(C)C[C@H]32)cc1 (mixture of isomers) next.
Reply | Criterion met

Ask | Can you check CN1CC[C@H]2CCC[C@@H](OC(=O)c3ccccc3)[C@H]2C1 (relative stereo) next?
Reply | Criterion not met

----------
- Tested on: Heart
- Method description: Antiarrhythmic activity in Hartley guinea pig atria assessed as change in maximum driving rate at 66.1 uM/l after 5 mins
- Format: functional, Cavia porcellus
Exercise: for every item that follows, state its recorded Activity.
Response body: numeric value in %, unit text excluded.

Ask | Recorded Activity for COc1ccc(C(=O)N[C@@H]2CCC[C@@H]3CCN(C)C[C@@H]32)cc1 (mixture of isomers) , please?
Reply | -15.1

Ask | Please answer likewise for COc1ccccc1C(=O)N[C@@H]1CCC[C@@H]2CCN(C)C[C@H]21 (mixture of isomers)
Reply | -19.8

Ask | Same question for COc1ccc(C(=O)N[C@@H]2CCC[C@@H]3CCN(C)C[C@H]32)cc1 (mixture of isomers) please.
Reply | -19.8

Ask | Could you do the same for COc1ccccc1C(=O)N[C@@H]1CCC[C@@H]2CCN(C)C[C@@H]21 (mixture of isomers) , please?
Reply | -23.2
